Biological target: T1, wild-type human Ang-2 (hAng-2-WT) (human, UniProt O15123 19-496)
T1 construct: called full-length wild-type; also called Full-length wild-type human Ang-2
T1 sequence: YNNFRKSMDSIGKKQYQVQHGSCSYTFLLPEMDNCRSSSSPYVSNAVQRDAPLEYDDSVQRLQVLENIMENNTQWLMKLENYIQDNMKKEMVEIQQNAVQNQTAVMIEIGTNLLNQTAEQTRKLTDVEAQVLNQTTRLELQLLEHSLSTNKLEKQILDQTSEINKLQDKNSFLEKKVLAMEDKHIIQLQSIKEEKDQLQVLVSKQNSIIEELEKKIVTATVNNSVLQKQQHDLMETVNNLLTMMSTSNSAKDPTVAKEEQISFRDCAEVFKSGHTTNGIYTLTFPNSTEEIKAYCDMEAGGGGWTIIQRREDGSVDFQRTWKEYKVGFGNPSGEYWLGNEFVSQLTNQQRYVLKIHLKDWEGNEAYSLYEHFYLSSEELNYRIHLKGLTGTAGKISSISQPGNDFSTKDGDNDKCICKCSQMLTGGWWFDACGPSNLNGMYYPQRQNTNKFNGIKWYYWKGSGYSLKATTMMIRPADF
Assay: SPR, captured Ab
measured_attribute: log10 T1/2 (log10 of the value in h)
# values: log10(T1/2), units h

H1H693P (antibody, V domains shown) VH: EVQLVESGGGLVQPGESLRLSCAASGFTFSSYAMSWVRQGPGKGLEWVSSISGSGGTTYYADSVEGRFTISRDNSKNTLYLHMNSLRAEDTAVYYCAKDFLDYSTYLAFDLWGQGTMVTVSS VL: DIQMTQSPSSVSASVGDRVTITCRASQGISSWLAWYQQKPGKAPKLLIYAASSLQSGVPSRFSGSGSGTDFTLTISSLQPEDFATYYCQQANSFPRTFGQGTKVEIK    0.22

May I ask what log10 T1/2 has been recorded for H2M744N (antibody, V domains shown) VH: QVQLVQSGVEVKKPGASVKVSCKTSGYTFSNNGFSWVRQAPGQGLEWLGWISGYNGNTNYAQKFQGRVTMTTDTSTSTAYMELRTLRSDDTAVYYCARDQDYSNFHWLDPWGQGTLVTVAS VL: DIQMTQSPSSVSASVGDRVIITCRASQGLSSWLAWYQQKPGTAPKLLIHSASSLQTGVPSRFSGSGSGTEFALTINSLQPEDFGTYYCQQANSFPLTFGGGTRVEIK ? 1.15

Would you kindly share the measured log10 T1/2 for H1H696P (antibody, V domains shown) VH: QVQLVESGGGLVKPGGSLRLSCAASGFTFSDYYMSWIRQAPGKGLEWVSYISYTGRTIYYADSVKGRFTISRDNAKNSLYLQMNSLRAEDTAVYYCARDTDYGDFFDYWGQGTLVTVSS VL: DIQMTQSPSSLSASVGDRVTITCRASQGISNYLAWFQQKPGKAPKSLIYAASSLQSGVPSKFSGSGSGTDFTLTISSLQPEDFATYYCQQYNSYPLTFGGGTKVEIK ? 1.03

Entry H1H749N (antibody, V domains shown) VH: QVQLVESGGGVVQPGRSLRLSCAASGFTFSSYGMHWVRQAPGKGLEWVAVIWYDEFNKYYADSVKGRFTISRDNSKNTLYLQMNSLRAEDTAVYYCARERESGYSYGFDYWGQGTLVTVSS VL: EIVMTQSPATLSVSPGERATLSCRAGQSVSSNLAWYQQKPGQAPRLLIYGASTRATGIPARFSGSGSGTEFTLTISSLQSEDFAVYYCQQYNNWWTFGQGTKVEIK has what log10 T1/2? 1.49

Sample H1H690P (antibody, V domains shown) VH: EVQLVESGGGLVQPGESLRLSCAASGFTFSSYAMSWVRQGPGKGLEWVSSITGSGDTTYYADSVKGRFTISRDNSKNTLYLHMNSLRAEDTAVYYCAKDFLDYSTYLAFDLWGQGTMVTVSS VL: EIVLTQSPATLSLSPGERATLSCRASQSVSSYLTWYQQKPGQAPRLLSYDASNRATGIPARFSGSGSGTDFTLTISSLEPEDFAVYYCQQRSNWPLTFGGGTKVEIK — what was its log10 T1/2? 1.42

Query (binder): H2M749N (antibody, V domains shown, also called H1M749N; H1M749) VH: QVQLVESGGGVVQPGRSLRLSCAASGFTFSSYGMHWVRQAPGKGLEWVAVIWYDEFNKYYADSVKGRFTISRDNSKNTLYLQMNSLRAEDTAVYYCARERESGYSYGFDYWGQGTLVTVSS VL: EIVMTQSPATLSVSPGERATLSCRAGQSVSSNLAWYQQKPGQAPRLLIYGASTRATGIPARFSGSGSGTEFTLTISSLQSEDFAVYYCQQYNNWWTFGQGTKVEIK ; field requested: log10 T1/2 0.90

Please give the measured log10 T1/2 for this binder: H2M730N (antibody, V domains shown) VH: EVQLVESGGGLVQPGGSLRLSCAASGFAFRSYWMTWVRQAPGKGLEWVANIQQDGNDKYYVDSVKGRFTISRDNAKNSLYLQMNSLRAEDTAVYYCARDTGIAEAGPFDYWGQGTLVTVSS VL: DIQMTQSPSTLSASVGDRVSITCRASQTIISWLAWYQQKPGKAPRLLIYKASSLESGVPSRFSGSGSGTEFTLTINSLQPDDFATYYCQQYNRYWTFGQGTKVEIK 0.94

Return reported log10 T1/2; argument: H1H730N (antibody, V domains shown) VH: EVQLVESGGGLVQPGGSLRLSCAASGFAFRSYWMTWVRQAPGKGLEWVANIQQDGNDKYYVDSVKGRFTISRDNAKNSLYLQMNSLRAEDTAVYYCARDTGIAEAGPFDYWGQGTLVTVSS VL: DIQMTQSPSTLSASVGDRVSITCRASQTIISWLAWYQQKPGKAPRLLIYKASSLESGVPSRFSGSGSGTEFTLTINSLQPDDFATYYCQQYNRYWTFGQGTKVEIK 0.95

Which log10 T1/2 value is on record for H1H704P (antibody, V domains shown) VH: QVQLVESGGDVVQPGRSLRLSCAASGFTFSSYGMHWVRQAPGKGLEWVAIIWYDGSNKYYADSVKGRFTISRDNSKNTLYLQMNSLRVEDTAVYSCARDFSISSRHFDYWGQGTLVTVSS VL: DIQMTQSPSSLSASVGDRVTITCRASQAINNYLAWFQQKPGKAPKSLIYATSNLQSGVPSQFSGSGSGTDYTLTISSLQPEDFATYYCQQYYIYPITFGQGTRLEIK ? 1.10

Can you share its log10 T1/2? I mean this binder: H1H743N (antibody, V domains shown) VH: EVQLLESGGGLVQPGGSLRLSCAASGFTFRKYAMSWVRQAPGKGLEWVSVISVSGGNTYYADSVKGRFTISRDNSKNTLYLQLNSLRAEDTAVYYCAKDLTDIVLMVYVDYWGQGTLVTVSS VL: DIQMTQSPSSVSASVGDRVTITCRASQDIDRWLAWYQQKPGKAPKLLIYAASSLQSGVPSRFSGSGSGTDFTLTISTLQPEDFATYYCQQANSLPFTFGGGTKVEIK 1.82

Origin of the recorded values: patent US20140112930A1
